Species: Rattus norvegicus
Protocol Summary: Open TG-GATES - Regimen: Daily Repeat
Type: toxicity, organism-based, Sprague-Dawley
Set-up: regimen Daily Repeat, gender Male, age 6 weeks
Cond: in vivo, po, 300 mg/kg, […], tissue Plasma, route gavage, dose level Middle, time 7 day
Collected CRE values appear next to each entry.
Readout Label: CRE (mg/dL)

Smiles Input	Unit Of Measure	Reported Measurement
COC(=O)C1=C(C)NC(C)=C(C(=O)OC)C1c1ccccc1[N+](=O)[O-]	mg/dL	0.2
CNC(=C[N+](=O)[O-])NCCSCc1ccc(CN(C)C)o1	mg/dL	0.4
Cc1nnc2n1-c1ccc(Cl)cc1C(c1ccccc1Cl)=NC2	mg/dL	0.2
CCOc1ccc(NC(C)=O)cc1	mg/dL	0.2
O=C(OC[C@H]1O[C@@H](OC(=O)c2cc(O)c(O)c(OC(=O)c3cc(O)c(O)c(O)c3)c2)[C@H](OC(=O)c2cc(O)c(O)c(OC(=O)c3cc(O)c(O)c(O)c3)c2)[C@@H](OC(=O)c2cc(O)c(O)c(OC(=O)c3cc(O)c(O)c(O)c3)c2)[C@@H]1OC(=O)c1cc(O)c(O)c(OC(=O)c2cc(O)c(O)c(O)c2)c1)c1cc(O)c(O)c(OC(=O)c2cc(O)c(O)c(O)c2)c1	mg/dL	0.6
CN/C(=N/CCSCc1nc[nH]c1C)NC#N	mg/dL	0.4
